- Protocol Summary: yeast display, Sf9 membrane polyspecificity reagent, FACS + sequencing; frameworks hold sequencing errors
Endpoint Label: polyreactivity (PSR sort gate)

QVQLVESGGGLVQAGGSLRLSCAPSGFTFDFYAMGWYRQEPGKATELFAAINSGGSTNYADSVKGRFTISRDNAKNTVYLQMNSLKPEDTAVYYCNADWFTPAQPWYRYFIRYDYWGQGSQVTVSS: low polyreactivity
QVQLVESGRRLVQAGGSLRLSCAASGSTFYGYGMGWYRPAPRQERELVAAITGSGDTTYYADSVKGRFTISRDNAKNTVYLQMNSLKPEDTAVYYCNARWHAEYDYWGQGTQVTVSS: low polyreactivity

----------
- Protocol Summary: yeast display, Sf9 membrane polyspecificity reagent, FACS + sequencing; frameworks hold sequencing errors
Endpoint Label: polyreactivity (PSR sort gate)

Examples with their reported polyreactivity (PSR sort gate) follow.
QLQLVESGGGLVQAGGSLRLSCAASGRIFYVNAMGWYRQAPGKERELVASITDGSSTYYADSVKGRFTISRDNAKNTVYLQMNILKPEDTAVYYCAVRAAYWGAHYYYWGQGTQVTVSS: high polyreactivity
QVQLVESGGGLVQAGGSLRLSCAASGSIFGRNDMGWYRQAPRKERELLARITRGGSTNYADSVKGRVTISRDNAKYTVYLQMNSLKPEDTAVYYCAAGARQYRGVPDRYGYWGQGTQVTVSS: low polyreactivity
QVQLVESGGGLVQAGGSLRLSCAASGRIFRYNAMGWYRQAPGKERELVAAIRFSGGSTYYADSVKGRFTISRDNAKNTVYLQMNSLKPEYSAVYYCAKVYFRVQSGMDYWGQGTQVTVSS: low polyreactivity
QVQLVESGGGLVQAGGSLRVSCAASGRILNPNAMGWYRQAPGKERELVADISSGGSTYADSVKGRFTISRDNAKNTVYLQMNSLKPEDTAVYYCAKPGYEEFYREYDSWGQGTQVNVSS: low polyreactivity
QVQLVESGGGLVQAGGSRRLSCAAAGISFGWYSMGWYRQAPGKERELVATISQSGTSTYYADSVKGRFTISRDNAKNTVYLQMNSLKPEDTAVYYCAADYIRGYYYRVPLEVDYWGQGNQVTVSS: low polyreactivity

Reported polyreactivity (PSR sort gate) of "QVQLVESGGGLVQAGGSLRLSCAASGFIFRSYVMGWYRQAPGKEREFVAVITSSGGRTYYADSVKGRFTISRDNAKNTVYLQMNSLKPEDTAVYYCAATRRYPPRRVWYDYWGQGTEVTVSS" : high polyreactivity

Reported polyreactivity (PSR sort gate) of "QVQLVESGAGLVQAGGSLRLSCAPSGRTFDYYAMGWYRQAPGKERELVADITKDGGSTYYADSVKGRFTISRDNAKNSVYLQMISLKPEDTAVYYCAADGPPQYYDPIHYDYWGQGTQVTVSS" : low polyreactivity

Reported polyreactivity (PSR sort gate) of "QVQLVESGGGLVQAGGSLRLSCAASGSTFAYAMGCYRQAPGKERELVAAIRTTGGSTYYADSVKGRFTISRDNAKNTVYFQMNSLNPEDSAVYYCAAVWGYGQYGSKYYYKYGYWGQGTQVTVSS" : high polyreactivity

----------
- Protocol Summary: yeast display, Sf9 membrane polyspecificity reagent, FACS + sequencing; frameworks hold sequencing errors
Endpoint Label: polyreactivity (PSR sort gate)

QVQLVDSGGGLVQAGGSLRLSCAASGSTFVYNTMGWYSHAPGKERELVAAISYRGSTYYADSVKGRFTISRENAKNTVYLQMNSLKPEDTAVYYCNGPRRQYEYDFWGLGTQVTVSS: high polyreactivity
QVQLVESGGGLVQAGGSLRLSCAASGSIFRSYAMGWYRPAPGKERELVASITWRGGRTYYADSVKGRFTISRDNAKNTVYLQMNSLKPEDTAVYYCAVLWTPAGGYYFRYDYWGQGTQVTVSS: low polyreactivity
QVQLVESGGGLVQAGGSLRLSCAASGSTFYINALGWYRQAPGKESELVAAITWNSDSTYYADSVKVRFTISRDNSKNTVYLQMNSLKPEDTAVYYCNHDRIIWGRLYEEGDYWGQGTQVTVSS: low polyreactivity
QVQLVETGGGLVQAGGSLRLSCAASGSTLAPYVMGWYRQAPGKERELVAVISTRTGRTYYADSVKGRFTISRDNAKNTVYLQMNSLKPEDTAVYYCAAPVYPYQVQTYDYWGQGTQVTVSS: high polyreactivity

Alright, here's another sequence for you.
Reported polyreactivity (PSR sort gate) of "PVQIVESGGGLVQAGGSLRLSCAASGFTFYSNAMGWYRQAPGKEWEMVAAISFSGTRTYYADSVKGRFTISRDNEKNTVYLQMNSLKPEDTAVYYCNAVAYNYPRTYDYWGQGTQVTVSS" : high polyreactivity

----------
- Protocol Summary: yeast display, Sf9 membrane polyspecificity reagent, FACS + sequencing; frameworks hold sequencing errors
Endpoint Label: polyreactivity (PSR sort gate)

Examples with their reported polyreactivity (PSR sort gate) follow.
QVQLVESGGGIVQAGGSLLLSCPASGRIFGVYAMGWYRQAPGKERELVAGINGGDSTYYADSVKGRFTISRDNAKNTVYLQMNSLKPEDTAVYYCAAEADESGSNYDYWGQGSQVTVSS: low polyreactivity
QVQLVESGGGLVQAGGSLRISCAASGRIFSGYAMGWYRQAPGKERELVAAITSGGSTNYADSVKGRFTISRDNAKNTVYLQMNSLKPEDTAVYYCAADSREVSTTAYYYWGQGTQVTVSS: low polyreactivity
QVQLVDSGGGLVQAGGTLRLSCAASGFTFIYYAMGWYRQAPGKERELVAAISASGGSTYYADSVKGRFTISRDNAKNTVYLQMNSLKPEDTAVYYCNKYWRKPPAGGYYYWGQGTQVTVSS: high polyreactivity
QVQLVESGGGLVQAGGSLRLSCAASGSTFPFNAMGWYRQAPGKEREFVAVINSGGDSTYYADSVKGRFTISRDNAKNTVYLQMNSLKPEDTAVYYCNAEDTRNDYDYWGQGTQVTVSS: low polyreactivity
QVQLVDSAGALVQAGGSLRLSCAASGRTFRYNAMGWYRQAPGKERELVAAITQSGGSTYYADSVKGRFTISRDNAKNTVYLQMNSQKPEDTAVYYCAKVRERINYDYWGQGTQVTVSS: low polyreactivity

Reported polyreactivity (PSR sort gate) of "QVHLLESGGGLLQAGGSLRLSCAASGLIFRPYAMGWYRQAPGKERELVAGISFRGDSTYYADSVKGRFTISRDNAKNTVYLHMNSLKPEDTAVYYWNKRKASSSGYNYWGQGTQVTVSS" : low polyreactivity

Reported polyreactivity (PSR sort gate) of "QVQLVESGGGLVQAGGTLRLSCSATGYIFWSYAMGGYRQAPGKERELVAGITASGGSTYYADSVKGRFTISRDNAKNTVYLQMNSLKPEDTAVSYCAVALRSTPRTREVRPSPRVYYWGQGTQVTVSS" : high polyreactivity

Reported polyreactivity (PSR sort gate) of "QVQVVESGGGLVQAGGSLRLSCAASGSTFSSYVMGWYRQATGKERELVAAISSIGGSTYYADSVKGRFTISRDNAKITVYLQMNSLKPEDTAVYYCAAEPPGSTYEGGYWGQGTQVTVSS" : low polyreactivity

----------
- Protocol Summary: yeast display, Sf9 membrane polyspecificity reagent, FACS + sequencing; frameworks hold sequencing errors
Endpoint Label: polyreactivity (PSR sort gate)

Examples with their reported polyreactivity (PSR sort gate) follow.
QVQLVESGGGLVQAGGSLRLSCAASGSIFNYSAMGWYRQARGKERELVAGITTSGGSTYYADSVKGRFTISRDNAKNTVYLQMNSLKPEDTAVYYCAAYDYISSTYFLDDYWGQGTQVTVSS: low polyreactivity
QVQLVESGGGLVQAGGSLRLSCAASGIFGVNTMGWYRQAPGKERELVASITSGGSTNYADSVKGRFTISRDNAKNTVYLQMNSLKPEDTAVYYCAAGLYLQGPFDYWGQGTQVTVSS: low polyreactivity
QVQLVESGGGKVQAGGSLSLSCAASGSTFVVNAMGWYRQAPGKERELVAAIDGSDGSTYYADSEKGRFTISRDNAKNTVYLQMNSLKPEDTAVYYCAAEVLGRPDVENDYWGQGTKVTVSS: low polyreactivity
QVQLVESGGGLDQAGGSLRLICAASGLTFPYYARGWSIQAPGKEMEVVAGITDDGGDTYYADSVKGRLTISRDYAKNTVYLQMNSLKPEDTAVYFCAADGWFQGWFGYGYWGQGTQVTVSS: high polyreactivity

Reported polyreactivity (PSR sort gate) of "QVQLVESGGGLVQAGGSLRLSCAASGFTFGYYTMGWYRQAPGKERELVAAISWRGGRTYYADSVKGRFTISRDNAKNTVYLQMNSLKPEDTAVYYCAAEYTYGWTYRPFDYWGQGTQVTVSS" : high polyreactivity

Reported polyreactivity (PSR sort gate) of "QVQLVESGGGLVQAGGSLRLSCAASGYTFDGYAMGWYRQAPGKERELVAAINSGGGTYYADSVKGRFTISRDNAKNTVYLQMNSLKPEDTAVYYCAKYTYDYWGQGTQVTVSS" : low polyreactivity

Reported polyreactivity (PSR sort gate) of "QVQLVESGGGLVQAGGSLRLSCAASGLTFYDYAKGWYRQAPGKELELVADIDFNGGSTSYADSVKGRFTISRDNAKNTVYLQMNSLKPEDTAVYYCAVDFIYWFHSRSSYIYDYWGQGSQVTVSS" : low polyreactivity

Reported polyreactivity (PSR sort gate) of "QVQLVESVGGVVQAGGSLRLSCAASGFTFKYYDMGWYRQAPGKERELVAAISRRGGSTSYADSVKGRFTISRDNAKNTVYLQMNSLKPEDTAVYYCAADSSFERSSDYWGHGTQVTVSS" : high polyreactivity

Reported polyreactivity (PSR sort gate) of "QVQLVESGGGVVQAGGSLRLSCAASGYTFLPYAMGWYRQAPGNARELVAAITVRGGRTYDADAVKGRFTISRHNAKKTVYLQMNSLKPEDTAVYYCHTDAYRLGYDYWGPGTQVTVSS" : high polyreactivity

Reported polyreactivity (PSR sort gate) of "QVQLVESGGGLVQAGGSLRLSCAASGRIFGAYAMGWYRPAPGKERELVAAITGGDSTYYADSVKGRFTISRDNAKNTVYLQMNSLKPEDTAVYYCAADLTPEGVLQLGKYINYDSWGQGTQVTVSS" : low polyreactivity
